assay: solvent given as SMILES; conditions: in CCCCC(CC)CO
Cut-off -10 kcal/mol on solvation free energy, 298 K: below means met, at or above means not met.

[
  {
    "Smiles notation": "c1cc2ccc3cccc4ccc(c1)c2c34",
    "Assigned label": "met"
  }
]

Query: solvation free energy, 298 K strictly < -10 kcal/mol for this molecule? c1ccc2c(c1)Sc1ccccc1S2
Result: met

Query: Similarly, CCc1ccc2c(c1)C(=O)c1ccccc1C2=O ?
Result: met

Query: Similarly, c1ccc(-c2ccccc2)cc1 ?
Result: not met

----------
# reported solvation free energy, 298 K; entries follow
assay: solvent given as SMILES; conditions: in BrC(Br)C(Br)Br
Supply the numeric figure in kcal/mol, leaving out any unit text.

[
  {
    "Smiles notation": "CCCCCCC",
    "Measured property": "solvation free energy, 298 K",
    "Quantitative readout": -3.34
  },
  {
    "Smiles notation": "CCCCC",
    "Measured property": "solvation free energy, 298 K",
    "Quantitative readout": -2.06
  },
  {
    "Smiles notation": "CCCCCC",
    "Measured property": "solvation free energy, 298 K",
    "Quantitative readout": -2.72
  }
]

# context switch: different compound, same solvation free energy, 298 K
Query: Give the measured solvation free energy, 298 K of CC=C(C)C .
Result: -2.68

----------
# reported solvation free energy, 298 K; entries follow
assay: solvent given as SMILES; conditions: in FC(F)(F)C(F)(F)C(F)(F)C(F)(F)C(F)(F)C(F)(F)F
Supply the numeric figure in kcal/mol, leaving out any unit text.

[
  {
    "Smiles notation": "C[N+](=O)[O-]",
    "Measured property": "solvation free energy, 298 K",
    "Quantitative readout": -2.11
  },
  {
    "Smiles notation": "CCCCCC",
    "Measured property": "solvation free energy, 298 K",
    "Quantitative readout": -2.67
  },
  {
    "Smiles notation": "CC(C)C(C)C(C)C",
    "Measured property": "solvation free energy, 298 K",
    "Quantitative readout": -3.4
  },
  {
    "Smiles notation": "CC(C)CCC(C)C",
    "Measured property": "solvation free energy, 298 K",
    "Quantitative readout": -3.3
  },
  {
    "Smiles notation": "CCCCC",
    "Measured property": "solvation free energy, 298 K",
    "Quantitative readout": -2.15
  }
]

Query: Give the measured solvation free energy, 298 K of CCCCCCCCC .
Result: -3.96

Query: Similarly, CCCCCCC ?
Result: -3.06

Query: Similarly, CCCCCCCC ?
Result: -3.52

Query: Similarly, CCO ?
Result: -1.55

----------
assay: solvent given as SMILES; conditions: in CCCCN(C=O)CCCC
Cut-off -4 kcal/mol on solvation free energy, 298 K: below means yes (1), at or above means no (0).

[
  {
    "Smiles notation": "CCCCCC",
    "Assigned label": "no (0)"
  },
  {
    "Smiles notation": "CC(C)=O",
    "Assigned label": "no (0)"
  },
  {
    "Smiles notation": "c1ccncc1",
    "Assigned label": "yes (1)"
  },
  {
    "Smiles notation": "CCc1ccccc1",
    "Assigned label": "yes (1)"
  },
  {
    "Smiles notation": "CCO",
    "Assigned label": "yes (1)"
  }
]

Query: solvation free energy, 298 K strictly < -4 kcal/mol for this compound? CCCCC
Result: no (0)

Query: Similarly, CC(=O)CC(C)C ?
Result: yes (1)

Query: Similarly, CCOCC ?
Result: no (0)
